# Measured Target: Peptide 1: Biotin-…-[Tyr(PC)]-acid
# Sequence (peptide, as listed by the source): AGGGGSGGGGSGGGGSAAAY
# Test Details: scFv ELISA

>  <Binder>
PcOxP_DB01_E05 (scFv, V domains shown, scFv in periplasmic extract) VH: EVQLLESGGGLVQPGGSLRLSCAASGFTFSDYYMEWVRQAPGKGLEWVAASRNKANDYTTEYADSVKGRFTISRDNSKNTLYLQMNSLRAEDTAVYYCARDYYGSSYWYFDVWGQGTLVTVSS VL: DIQMTQSPSSLSASVGDRVTITCTASESLYSSKHKVNYLAWYQQKPGKAPKLLIYGASNRYIGVPSRFSGSGSGTDFTLTISSLQPEDFATYYCAQFYQYPLTFGGGTKVEIK

>  <Unit Descriptor>
OD450

>  <OD450>
0.95

$$$$
>  <Binder>
PcOxP_DB03_F07 (scFv, V domains shown, scFv in periplasmic extract) VH: EVQLLESGGGLVQPGGSLRLSCAASGFTQSDFYMEWVRQAPGKGLEWVAASRNKGNSYTTAYADSVKGRFTISRDNSKNTLYLQMNSLRAEDTAVYYCARDYYGSSYWYFDVWGQGTLVTVSS VL: DIVMTQSPDSLAVSLGERATINCTASESLYSGKHKVHYLAWYQQKPGQPPKLLIYGASNRYIGVPDRFSGSGSGTDFTLTISSLQAEDVAVYYCAQFYSYPLTFGGGTKVEIK

>  <Unit Descriptor>
OD450

>  <OD450>
0.53

$$$$
>  <Binder>
PcOxP_DB03_E04 (scFv, V domains shown, scFv in periplasmic extract) VH: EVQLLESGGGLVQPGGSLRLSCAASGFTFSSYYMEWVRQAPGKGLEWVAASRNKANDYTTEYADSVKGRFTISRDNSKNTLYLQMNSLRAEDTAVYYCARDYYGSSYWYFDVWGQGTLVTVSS VL: DIVMTQSPDSLAVSLGERATINCTASESLYSSKHKVHYLAWYQQKPGQPPKLLIYGASNRYLGVPDRFSGSGSGTDFTLTISSLQAEDVAVYYCAQFYSYPLTFGGGTKVEIK

>  <Unit Descriptor>
OD450

>  <OD450>
0.96

$$$$
